target system: αvβ1 (Homo sapiens, UniProt P05556+P06756)
Sequence (P06756 31-992 limits assumed): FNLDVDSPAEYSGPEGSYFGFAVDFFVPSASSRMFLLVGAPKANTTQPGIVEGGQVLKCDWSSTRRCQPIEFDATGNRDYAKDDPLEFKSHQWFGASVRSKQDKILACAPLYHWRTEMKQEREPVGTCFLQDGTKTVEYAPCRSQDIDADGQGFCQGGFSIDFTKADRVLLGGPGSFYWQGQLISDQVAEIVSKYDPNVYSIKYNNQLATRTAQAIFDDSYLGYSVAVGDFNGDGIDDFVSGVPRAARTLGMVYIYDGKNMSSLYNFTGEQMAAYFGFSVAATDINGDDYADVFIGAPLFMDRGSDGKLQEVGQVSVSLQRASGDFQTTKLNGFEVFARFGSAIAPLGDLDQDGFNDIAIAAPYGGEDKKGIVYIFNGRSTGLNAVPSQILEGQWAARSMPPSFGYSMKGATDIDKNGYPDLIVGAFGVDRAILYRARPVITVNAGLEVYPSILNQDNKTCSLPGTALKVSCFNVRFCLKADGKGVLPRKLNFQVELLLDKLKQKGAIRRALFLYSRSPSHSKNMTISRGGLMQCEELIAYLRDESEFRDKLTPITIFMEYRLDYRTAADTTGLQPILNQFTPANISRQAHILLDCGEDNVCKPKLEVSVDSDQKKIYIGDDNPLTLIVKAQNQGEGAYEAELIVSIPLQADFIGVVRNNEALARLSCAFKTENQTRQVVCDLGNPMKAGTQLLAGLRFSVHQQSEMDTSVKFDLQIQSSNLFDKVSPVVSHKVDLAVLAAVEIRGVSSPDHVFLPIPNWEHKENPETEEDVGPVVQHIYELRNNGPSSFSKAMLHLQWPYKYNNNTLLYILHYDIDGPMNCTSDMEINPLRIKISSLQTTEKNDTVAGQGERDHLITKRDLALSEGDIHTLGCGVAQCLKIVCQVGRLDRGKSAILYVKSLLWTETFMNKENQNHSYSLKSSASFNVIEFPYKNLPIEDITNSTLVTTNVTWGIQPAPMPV
Sequence (P05556 21-728 limits assumed): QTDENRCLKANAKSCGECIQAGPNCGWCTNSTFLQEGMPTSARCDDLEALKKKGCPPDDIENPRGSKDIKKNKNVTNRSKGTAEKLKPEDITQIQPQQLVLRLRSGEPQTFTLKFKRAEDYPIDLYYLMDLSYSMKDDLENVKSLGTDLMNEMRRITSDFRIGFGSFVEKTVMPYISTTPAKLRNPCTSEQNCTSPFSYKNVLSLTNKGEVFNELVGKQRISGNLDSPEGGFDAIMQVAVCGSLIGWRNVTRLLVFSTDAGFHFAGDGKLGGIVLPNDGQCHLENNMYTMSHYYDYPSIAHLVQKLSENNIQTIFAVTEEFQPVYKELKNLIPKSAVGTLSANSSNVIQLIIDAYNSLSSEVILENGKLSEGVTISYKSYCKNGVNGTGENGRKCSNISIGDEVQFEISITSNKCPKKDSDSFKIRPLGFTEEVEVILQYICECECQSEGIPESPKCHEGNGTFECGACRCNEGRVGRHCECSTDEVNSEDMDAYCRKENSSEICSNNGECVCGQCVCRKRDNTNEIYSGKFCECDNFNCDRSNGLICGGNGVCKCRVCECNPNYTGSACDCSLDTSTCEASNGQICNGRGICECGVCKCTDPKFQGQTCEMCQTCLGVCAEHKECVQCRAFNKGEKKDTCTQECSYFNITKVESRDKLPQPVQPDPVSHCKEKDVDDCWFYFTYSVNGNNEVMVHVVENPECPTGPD
test: Solid Phase Integrin αvβ1 Assay
pIC50: −log10 of the molar value.
Catalogue of pIC50 values

O=C(O)C[C@H](NC[C@@H]1CCCN(CCCc2ccc3c(n2)NCCC3)C1)c1cccc(C2CC2)c1 [Compound 529] : 6.00 to 7.00

Ask: Bench note: what pIC50 did O=C(O)[C@H](c1ccccc1)[C@@H](O)CO[C@@H]1CCCN(CCCc2ccc3c(n2)NCCC3)C1 [Compound 612] show?
Result: < 6.00

Ask: Param item: O=C(O)C[C@@H](NC(=O)[C@@H]1CCCN(CCCc2ccc3c(n2)NCCC3)C1)c1ccc2c(c1)CCCC2 (single isomer, unassigned) [Compound 204-B]
Result: > 7.00

Ask: Entry to check: CC1(C)CCN(c2cccc([C@@H](CNC(=O)[C@@H]3CCCN(CCCc4ccc5c(n4)NCCC5)C3)C(=O)O)c2)CC1 [Compound 601]
Result: > 7.00

Ask: Do the same for O=C(NC[C@@H](C(=O)O)c1ccc2ccccc2c1)[C@@H]1CCCN(CCCc2ccc3c(n2)NCCC3)C1 [Compound 249-B] please
Result: > 7.00

Ask: Similarly, O=C(O)[C@@H](CO[C@@H]1CCCN(CCCCc2ccc3c(n2)NCCC3)C1)NC(=O)C12CCC(CC1)CC2 [Compound 401] ?
Result: < 6.00

Ask: And the next one, O=C(O)C[C@@H](CO[C@@H]1CCCN(CCCc2ccc3c(n2)NCCC3)C1)c1cc(F)cc(C2CC2)c1 [Compound 519] ?
Result: > 7.00

----------
target system: αvβ6 (Homo sapiens, UniProt P06756+P18564)
Sequence (P06756 31-992 limits assumed): as the sequence (P06756 31-992 limits assumed) above
Sequence (P18564 22-707 limits assumed): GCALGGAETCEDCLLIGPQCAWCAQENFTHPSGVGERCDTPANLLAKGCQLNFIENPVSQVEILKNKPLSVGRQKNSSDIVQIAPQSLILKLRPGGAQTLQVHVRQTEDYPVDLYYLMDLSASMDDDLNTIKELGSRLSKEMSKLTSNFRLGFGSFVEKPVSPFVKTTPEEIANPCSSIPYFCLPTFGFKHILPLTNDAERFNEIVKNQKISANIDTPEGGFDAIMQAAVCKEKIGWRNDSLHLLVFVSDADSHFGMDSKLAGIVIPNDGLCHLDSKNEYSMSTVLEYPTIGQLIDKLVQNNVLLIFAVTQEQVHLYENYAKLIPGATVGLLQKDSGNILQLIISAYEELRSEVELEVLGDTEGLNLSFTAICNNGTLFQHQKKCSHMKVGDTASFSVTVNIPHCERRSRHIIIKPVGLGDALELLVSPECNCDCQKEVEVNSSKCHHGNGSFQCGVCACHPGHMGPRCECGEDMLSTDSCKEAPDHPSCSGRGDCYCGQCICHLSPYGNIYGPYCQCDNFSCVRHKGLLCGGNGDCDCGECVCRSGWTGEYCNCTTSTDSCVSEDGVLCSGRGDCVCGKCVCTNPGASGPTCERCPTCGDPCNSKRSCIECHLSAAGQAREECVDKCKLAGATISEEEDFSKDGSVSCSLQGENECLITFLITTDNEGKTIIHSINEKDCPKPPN
test: Solid Phase Integrin αvβ6 Assay
Item-by-item account of IC50

Look over these answered cases.
O=C(O)[C@H](CCO[C@@H]1CCCN(CCCc2ccc3c(n2)NCCC3)C1)Nc1ncnc2cc(F)c(F)cc12 : < 100 nM
O=C(N[C@@H](CCO[C@@H]1CCCN(CCCc2ccc3c(n2)NCCC3)C1)C(=O)O)c1c(F)cc(N2CCOC[C@@H]2C(F)(F)F)cc1F : 100 to 1000 nM

Ask: Please look up its IC50: "O=C(O)[C@H](CCO[C@@H]1CCCN(CCCc2ccc3c(n2)NCCC3)C1)c1cccc2c1cnn2CC1CC1"
Result: 100 to 1000 nM

----------
target system: αvβ1 (Homo sapiens, UniProt P05556+P06756)
test: Solid Phase Integrin αvβ1 Assay
Counter-ions that a name gives are not always drawn.
Measured IC50 values are reported for all entries that follow.

Cc1ccn(-c2cccc([C@H](CC(=O)O)NC(=O)[C@@H]3CCCN(CCCc4ccc5c(n4)NCCC5)C3)c2)n1 [Compound 238] : < 100 nM
O=C(O)C[C@@H](NC(=O)[C@@H]1CCCN(CCCc2ccc3c(n2)NCCC3)C1)c1cccc(C2CC2)c1F [Compound 344] : < 100 nM
CC1(C)CN(c2cccc([C@@H](CNC(=O)[C@@H]3CCCN(CCCc4ccc5c(n4)NCCC5)C3)C(=O)O)c2)CCO1 [Compound 595] : < 100 nM

Ask: # query: IC50 of entry O=C(O)C[C@H](NC(=O)[C@H]1CCCN(C(=O)CCc2ccc3c(n2)NCCC3)C1)c1ccccc1 [Compound 286, hydrochloride]
Result: > 1000 nM

Ask: Now consider O=C(O)[C@H](CO[C@@H]1CCCN(CCCCc2ccc3c(n2)NCCC3)C1)Nc1ncnc2ccccc12 [Compound 409] and answer again.
Result: > 1000 nM

Ask: Then this molecule: O=C(NC[C@H](Nc1nc2ccccc2s1)C(=O)O)[C@@H]1CCCN(CCCc2ccc3c(n2)NCCC3)C1 [Compound 281]
Result: < 100 nM

Ask: And for O=C(O)C[C@@H](CO[C@@H]1CCCN(CCCc2ccc3c(n2)NCCC3)C1)c1cncc(N2CCC(F)(F)CC2)c1 [Compound 649] ?
Result: < 100 nM

----------
target system: αvβ6 (Homo sapiens, UniProt P06756+P18564)
test: Solid Phase Integrin αvβ6 Assay
experimental readout: IC50

The examples below pair each entry with its known result.
O=C(O)CC(NC(=O)[C@@H]1CCCN(CCCc2ccc3c(n2)NCCC3)C1)c1cccc(O)c1 (stereo partly shown) : < 100 nM
O=C(O)C(CNC(=O)[C@@H]1CCCN(CCCc2ccc3c(n2)NCCC3)C1)c1cc(-c2ccccc2)ccn1 (stereo partly shown) : < 100 nM
C[C@@H]1CN(c2cccc([C@@H](CNC(=O)[C@@H]3CCCN(CCCc4ccc5c(n4)NCCC5)C3)C(=O)O)c2)C[C@H](C)O1 : < 100 nM
CC1(C)CCCN(c2cccc([C@H](CC(=O)O)NC(=O)[C@@H]3CCCN(CCCc4ccc5c(n4)NCCC5)C3)c2)C1 : < 100 nM
Cc1csc2ncnc(N[C@@H](CCO[C@@H]3CCCN(CCCc4ccc5c(n4)NCCC5)C3)C(=O)O)c12 : > 1000 nM
O=C(O)C[C@@H](NC(=O)[C@@H]1CCCN(CCCc2ccc3c(n2)NCCC3)C1)c1cccc2c1CCC2 : 100 to 1000 nM

# evaluate next
Ask: Could you tell me which IC50 is on file for "O=C(O)[C@@H](CCO[C@@H]1CCCN(CCCc2ccc3c(n2)NCCC3)C1)c1ccc(F)c(-c2ccccc2)c1" ?
Result: > 1000 nM

----------
Measured IC50 of individual entries
target system: αvβ6 (Homo sapiens, UniProt P06756+P18564)
test: Solid Phase Integrin αvβ6 Assay
Type: binding

Below: 2 compounds and their reported IC50.
C[C@H]1OCCN(c2cccc([C@H](CC(=O)O)NC(=O)[C@@H]3CCCN(CCCc4ccc5c(n4)NCCC5)C3)c2)[C@H]1C : < 100 nM
O=C(Cc1ccccc1)N[C@@H](CNC(=O)[C@@H]1CCCN(CCCc2ccc3c(n2)NCCC3)C1)C(=O)O : < 100 nM

Would you kindly look at the next entry?
Ask: IC50 for "Cc1cc([C@@H](CO[C@@H]2CCCN(CCCc3ccc4c(n3)NCCC4)C2)CC(=O)O)cc(N2CCOC(C)(C)C2)c1" ?
Result: < 100 nM

----------
pIC50 values, listed per item
target system: αvβ6 (Homo sapiens, UniProt P06756+P18564)
test: Solid Phase Integrin αvβ6 Assay
Protocol: The compounds exemplified in this document were tested for their ability to inhibit αvβ1 and αvβ6 in below described solid phase integrin assays. Solid Phase Integrin αvβ6 Assay 96-well microtiter plates (4 HBX Immulon; Thermo Fisher Scientific, Waltham, MA) were coated with 100 μL/well of 1 μg/mL recombinant TGFb1-LAP in TBS at 4° C., overnight. […] Bound protein was detected using the substrate TMB. […]
pIC50: −log10 of the molar value.

O=C(O)[C@](O)(CO[C@@H]1CCCN(CCCc2ccc3c(n2)NCCC3)C1)c1ccccc1 : < 6.00

Ask: For "O=C(O)C[C@@H](CO[C@@H]1CCCN(CCCc2ccc3c(n2)NCCC3)C1)c1ccc(-c2ccccc2)cc1" , what is its reported pIC50?
Result: 6.00 to 7.00

Ask: "O=C(O)C[C@@H](CO[C@@H]1CCCN(CCCCc2ccc3c(n2)NCCC3)C1)c1ccccc1" , same question.
Result: < 6.00

----------
target system: αvβ1 (Homo sapiens, UniProt P05556+P06756)
test: Solid Phase Integrin αvβ1 Assay
pIC50: −log10 of the molar value. Counter-ions that a name gives are not always drawn.
We begin with a simple list: items and their reported pIC50.

Please review the following examples before continuing.
O=C(NC1([C@@H](C(=O)O)c2cccc(-c3ccccc3)c2)CC1)[C@@H]1CCCN(CCCc2ccc3c(n2)NCCC3)C1 : < 6.00
Cc1cc(C)n(-c2cccc([C@@H](CO[C@@H]3CCCN(CCCc4ccc5c(n4)NCCC5)C3)CC(=O)O)c2)n1 : > 7.00
C[C@@H]1CCN(CCCc2ccc3c(n2)NCCC3)C[C@@H]1C(=O)N[C@@H](CC(=O)O)c1ccccc1 : 6.00 to 7.00
CC1(C)CN(c2cccc([C@H](CO[C@@H]3CCCN(CCCc4ccc5c(n4)NCCC5)C3)CC(=O)O)c2)CCC1(F)F : > 7.00
O=C(O)C[C@H](NC(=O)[C@@H]1CCCN(CCCc2ccc3c(n2)NCCC3)C1)c1cc(Cl)cc(Cl)c1 : > 7.00

Ask: Recorded pIC50 for "O=C(O)[C@H](CO[C@@H]1CCCN(CCCCc2ccc3c(n2)NCCC3)C1)NC(=O)C12CCC(CC1)CC2" , please?
Result: 6.00 to 7.00

Ask: # repeat for "CC1(C)CCCN(c2cccc([C@H](CO[C@@H]3CCCN(CCCc4ccc5c(n4)NCCC5)C3)CC(=O)O)c2)C1"
Result: > 7.00

Ask: Another compound: "O=C(NC[C@H](C(=O)O)c1ccc2ccccc2c1)[C@@H]1CCCN(CCCc2ccc3c(n2)NCCC3)C1"
Result: > 7.00

Ask: And "CN(C[C@@H]1CCCN(CCCc2ccc3c(n2)NCCC3)C1)[C@@H](CC(=O)O)c1cccc(C2CC2)c1" ?
Result: < 6.00

Ask: For "O=C(NC[C@H](C(=O)O)c1cnc2c(ccn2CC2CC2)c1)[C@@H]1CCCN(CCCc2ccc3c(n2)NCCC3)C1" then?
Result: > 7.00

Ask: Next compound: Cc1cnn(C)c1-c1cccc([C@H](CC(=O)O)NC(=O)[C@@H]2CCCN(CCCc3ccc4c(n3)NCCC4)C2)c1 [Compound 226, hydrochloride]
Result: > 7.00

Ask: // next record "CN(C[C@@H]1CCCN(CCCc2ccc3c(n2)NCCC3)C1)[C@@H](CC(=O)O)c1cccc(Br)c1"
Result: < 6.00

Ask: Then "O=C(O)[C@H](CCO[C@@H]1CCCN(CCCc2ccc3c(n2)NCCC3)C1)c1cccc2nn(CC3CC3)cc12" ?
Result: < 6.00

Ask: Next: "O=C(NC[C@H](C(=O)O)c1cccc(-c2ccncc2)c1)[C@@H]1CCCN(CCCc2ccc3c(n2)NCCC3)C1"
Result: > 7.00

Ask: Field entry: "O=C(O)[C@H](CCO[C@@H]1CCCN(CCc2ccc3c(n2)NCCC3)C1)NC(=O)C12CCC(CC1)CC2"
Result: > 7.00

Ask: Same read-out for "CO[C@H]1CCN(C(=O)[C@@H]2CCCC[C@H]2C(=O)N[C@@H](CNC(=O)[C@@H]2CCCN(CCCc3ccc4c(n3)NCCC4)C2)C(=O)O)C1" ?
Result: > 7.00

Ask: Please give the result for "O=C(NC[C@H](C(=O)O)c1ccccc1)[C@@H]1CCCN(CCCc2ccc3c(n2)NCCC3)C1" too.
Result: > 7.00

Ask: Continue with "O=C(NC[C@H](C(=O)O)c1cccc(-c2cccc(C(F)(F)F)c2)c1)[C@@H]1CCCN(CCCc2ccc3c(n2)NCCC3)C1"
Result: > 7.00
